Hello, the source for this data is the supplement of paper PMC6555819, in case you need it.

Consider the following sequences and their measured PBM binding z-score readings.
Test system: THRa homodimer (NR concentration 90 nM)
Assay: PBM binding z-score (relative to random genomic background probes); higher = stronger binding; sequences stand for … in GC…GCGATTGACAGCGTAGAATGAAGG
API note: the answer field is a bare number with no unit suffix.

(Q) Which measured PBM binding z-score value corresponds to `TCTGCTAGGTCAACCATGGTCAGCTAATCTGCTA` ?
(A) 1.03

(Q) Same for `CAAACTAGGTCACCGGAACGTCAAAGTCCGCATG`
(A) 1.88

(Q) Same for `TCTTGTAGATCAATAGCGGTTAAGAAAGTGCGCT`
(A) -0.478
